target: Tubulin; assay: Tubulin interaction assessed as inhibition of cold-induced microtubule disassembly
Reported IC50 is given for each of the following compounds.
RECORDED ENDPOINT: IC50

1. CC(=O)O[C@@]12CO[C@@H]1C[C@H](O)[C@@]1(C)C(=O)[C@H](O)C3=C(C)[C@@H](OC(=O)[C@H](O)[C@@H](NC(=O)OC(C)(C)C)c4ccccc4)C[C@@](O)([C@@H](OC(=O)c4ccccc4)[C@H]21)C3(C)C [DOCETAXEL]    500 nM
2. CC(=O)O[C@@]12COC1C[C@H](O)[C@@]1(C)C(=O)[C@H](O)C3=C(C)[C@@H](OC(=O)[C@H](O)[C@@H](NC(=O)OC(C)(C)C)c4ccccc4)C[C@@](O)([C@@H](OC(=O)CN)C21)C3(C)C (some centres undefined)    51000 nM
3. CC(=O)O[C@@]12COC1C[C@H](O)[C@@]1(C)C(=O)[C@H](O)C3=C(C)[C@@H](OC(=O)C(O)[C@@H](NC(=O)N[C@H](C(=O)N4CCC[C@H]4C(=O)NCC(=O)NCC(=O)O)C(C)C)c4ccccc4)C[C@@](O)([C@@H](OC(=O)c4cccc(N)c4)C21)C3(C)C (some centres undefined)    1000 nM
4. CC(=O)O[C@@]12COC1C[C@H](O)[C@@]1(C)C(=O)[C@H](O)C3=C(C)[C@@H](OC(=O)C(O)C(NC(=O)N[C@H](C(=O)N4CCC[C@H]4C(=O)NCC(=O)O)C(C)C)c4ccccc4)C[C@@](O)([C@@H](OCc4ccccc4)C21)C3(C)C (some centres undefined)    600 nM

* * *

target: Tubulin (Homo sapiens) (UniProt P68371+Q9H4B7+P0DPH7+P68366+Q13509+Q71U36+P04350+Q3ZCM7+P07437+P68363+Q9BQE3+Q6PEY2+Q13885+Q9BVA1+Q9BUF5); assay: Tubulin interaction assessed as inhibition of cold-induced microtubule disassembly; format: protein-complex assay
The source made the active and inactive calls. No cut-off for these calls is given here.
RECORDED ENDPOINT: Activity

1) CC(=O)O[C@@]12COC1C[C@H](O)[C@@]1(C)C(=O)[C@H](O)C3=C(C)[C@@H](OC(=O)[C@H](O)[C@@H](NC(=O)OC(C)(C)C)c4ccccc4)C[C@@](O)([C@@H](OC(=O)[C@@H](NC(=O)[C@@H]4CCCN4C(=O)CNC(=O)CN)C(C)C)C21)C3(C)C (stereo not given in full)    inactive
2) CC(=O)O[C@@]12COC1C[C@H](O)[C@@]1(C)C(=O)[C@H](O)C3=C(C)[C@@H](OC(=O)[C@H](O)[C@@H](NC(=O)OC(C)(C)C)c4ccccc4)C[C@@](O)([C@@H](OC(=O)CNC(=O)Oc4ccccc4)C21)C3(C)C (stereo not given in full)    inactive
3) CC(=O)O[C@@]12COC1C[C@H](O)[C@@]1(C)C(=O)[C@H](O)C3=C(C)[C@@H](OC(=O)[C@H](O)[C@@H](NC(=O)OC(C)(C)C)c4ccccc4)C[C@@](O)([C@@H](OC(=O)[C@@H]4CCCN4C(=O)CNC(=O)CN)C21)C3(C)C (stereo not given in full)    inactive
4) CC(=O)O[C@@]12COC1C[C@H](O)[C@@]1(C)C(=O)[C@H](O)C3=C(C)[C@@H](OC(=O)[C@H](O)[C@@H](NC(=O)NCC(=O)N[C@@H](COCc4ccccc4)C(=O)N[C@@H](Cc4ccc(OCc5ccccc5)cc4)C(=O)OCc4ccccc4)c4ccccc4)C[C@@](O)([C@@H](OCc4ccccc4)C21)C3(C)C (stereo not given in full)    inactive
5) CC(=O)O[C@@]12COC1C[C@H](O)[C@@]1(C)C(=O)[C@H](O)C3=C(C)[C@@H](OC(=O)[C@H](O)[C@@H](NC(=O)OC(C)(C)C)c4ccccc4)C[C@@](O)([C@@H](OC(=O)CNC(=O)CN)C21)C3(C)C (stereo not given in full)    inactive
